Origin of the recorded values: patent US8501813B2

Documented activity at 0.1 µM across a set of compounds
target: γ-secretase (Homo sapiens, UniProt P49768); experiment: Aβ secretion by C99 cells (HEK293 stably expressing APP-C99), γ-secretase inhibitory effect, Aβ ELISA of culture supernatant; assay type: cell-based; conditions: HEK293, 24 h, Example 9; exposure 0.1 μmol/L; read-out: Aβ [(1-40) + (1-42)] secretion rate of C99 cells
Numbers only; they are read as %.

Below, each entry is followed by its recorded activity at 0.1 µM result.
compound: CCCCNC(=O)C(CCSC)NC(=O)C(NC(=O)C(CC(C)C)CC(O)C(NC(=O)OC(C)(C)C)C(C)O)C(C)C (stereo not shown)
activity at 0.1 µM / %: 44
//
compound: CSCCC(NC(=O)C(NC(=O)C(CC(C)C)CC(O)C(NC(=O)OC(C)(C)C)C(C)O)C(C)C)C(=O)NCc1ccc(F)cc1 (stereo not shown)
activity at 0.1 µM / %: 33
//
compound: CSCCC(NC(=O)C(NC(=O)C(CC(C)C)CC(O)C(NC(=O)OC(C)(C)C)C(C)O)C(C)C)C(=O)NCc1ccccc1 (stereo not shown)
activity at 0.1 µM / %: 40

Task: Returns the measured activity at 0.1 µM for the input compound. Input: CSCCC(NC(=O)C(NC(=O)C(CC(C)C)CC(O)C(NC(=O)OC(C)(C)C)C(C)O)C(C)C)C(=O)NC(C)c1ccccc1 (stereo not shown)
Output: 17

----------
target: γ-secretase (Homo sapiens, UniProt P49768); assay: Substrate specificity: β-Alcα secretion by HEK293 cells transfected with FLAG Alcα C150, anti-FLAG immunoprecipitation/western blot; assay type: cell-based; details: HEK293; 0.2 μmol/L, 24 h; FLAG Alcα C150; negative control = 100%; read-out: (ii) β-Alcα secretion rate of HEK293 cells
reported.endpoint: activity at 0.2 µM (%)
Numbers only; they are read as %.

Below, each entry is followed by its recorded activity at 0.2 µM result.
molecule: CCCCNC(=O)C(CCSC)NC(=O)C(NC(=O)C(CC(C)C)CC(O)C(NC(=O)OC(C)(C)C)C(C)O)C(C)C (stereo not shown)
reported.result: 120
--
molecule: CSCCC(NC(=O)C(NC(=O)C(CC(C)C)CC(O)C(NC(=O)OC(C)(C)C)C(C)O)C(C)C)C(=O)NCc1ccc(F)cc1 (stereo not shown)
reported.result: 158

Task: Returns the measured activity at 0.2 µM for the input molecule. Input: CSCCC(NC(=O)C(NC(=O)C(CC(C)C)CC(O)C(NC(=O)OC(C)(C)C)C(C)O)C(C)C)C(=O)NCc1ccccc1 (stereo not shown)
Output: 140

Task: Consider next the molecule CSCCC(NC(=O)C(NC(=O)C(CC(C)C)CC(O)C(NC(=O)OC(C)(C)C)C(C)O)C(C)C)C(=O)NC(C)c1ccccc1 (stereo not shown) in the same way.
Output: 118

----------
Documented activity at 1 µM across a set of compounds
biological target: UniProt P49768; assay: Aβ secretion by C99 cells (HEK293 stably expressing APP-C99), γ-secretase inhibitory effect, Aβ ELISA of culture supernatant; format: cell-based; details: HEK293, 24 h, Example 8; exposure 1 μmol/L, 24 h; read-out: Aβ [(1-40) + (1-42)] secretion rate of C99 cells
Numbers only; they are read as %.

Below, each entry is followed by its recorded activity at 1 µM result.
compound: CSCCC(NC(=O)C(NC(=O)C(CC(C)C)CC(O)C(NC(=O)OC(C)(C)C)C(C)O)C(C)C)C(=O)NCc1ccc(F)cc1 (stereo not shown)
tested.system: UniProt P49768
activity at 1 µM [%]: 8
--
compound: CSCCC(NC(=O)C(NC(=O)C(CC(C)C)CC(O)C(NC(=O)OC(C)(C)C)C(C)O)C(C)C)C(=O)NC(C)c1ccccc1 (stereo not shown)
tested.system: UniProt P49768
activity at 1 µM [%]: 1
--
compound: CSCCC(NC(=O)C(NC(=O)C(CC(C)C)CC(O)C(NC(=O)OC(C)(C)C)C(C)O)C(C)C)C(=O)NCc1ccccc1 (stereo not shown)
tested.system: UniProt P49768
activity at 1 µM [%]: 8

Proceeding to the next compound to report its activity at 1 µM.
Task: Returns the measured activity at 1 µM for the input compound. Input: CCCCNC(=O)C(CCSC)NC(=O)C(NC(=O)C(CC(C)C)CC(O)C(NC(=O)OC(C)(C)C)C(C)O)C(C)C (stereo not shown)
Output: 10

----------
biological target: γ-secretase (Homo sapiens, UniProt P49768); test: Aβ secretion by C99 cells (HEK293 stably expressing APP-C99), γ-secretase inhibitory effect, Aβ ELISA of culture supernatant; assay type: cell-based; details: HEK293, 24 h, Example 9; exposure 0.1 μmol/L; read-out: Aβ (1-42) secretion rate of C99 cells
Documented activity at 0.1 µM across a set of compounds
Numbers only; they are read as %.

compound: CSCCC(NC(=O)C(NC(=O)C(CC(C)C)CC(O)C(NC(=O)OC(C)(C)C)C(C)O)C(C)C)C(=O)NCc1ccc(F)cc1 (stereo not shown)
reported.endpoint: activity at 0.1 µM
reported.result: 67
--
compound: CSCCC(NC(=O)C(NC(=O)C(CC(C)C)CC(O)C(NC(=O)OC(C)(C)C)C(C)O)C(C)C)C(=O)NC(C)c1ccccc1 (stereo not shown)
reported.endpoint: activity at 0.1 µM
reported.result: 52

Task: # value lookup — system γ-secretase (Homo sapiens, UniProt P49768), readout activity at 0.1 µM, item CCCCNC(=O)C(CCSC)NC(=O)C(NC(=O)C(CC(C)C)CC(O)C(NC(=O)OC(C)(C)C)C(C)O)C(C)C (stereo not shown)
Output: 94

Task: Consider next the compound CSCCC(NC(=O)C(NC(=O)C(CC(C)C)CC(O)C(NC(=O)OC(C)(C)C)C(C)O)C(C)C)C(=O)NCc1ccccc1 (stereo not shown) in the same way.
Output: 74

----------
target: γ-secretase (Homo sapiens, UniProt P49768); experiment: Aβ secretion by C99 cells (HEK293 stably expressing APP-C99), γ-secretase inhibitory effect, Aβ ELISA of culture supernatant; assay type: cell-based; conditions: HEK293, 24 h, Example 9; exposure 0.3 μmol/L; read-out: Aβ (1-40) secretion rate of C99 cells
reported.endpoint: activity at 0.3 µM (%)
Numbers only; they are read as %.

Below, each entry is followed by its recorded activity at 0.3 µM result.
compound: CSCCC(NC(=O)C(NC(=O)C(CC(C)C)CC(O)C(NC(=O)OC(C)(C)C)C(C)O)C(C)C)C(=O)NCc1ccc(F)cc1 (stereo not shown)
activity at 0.3 µM (%): 17
//
compound: CSCCC(NC(=O)C(NC(=O)C(CC(C)C)CC(O)C(NC(=O)OC(C)(C)C)C(C)O)C(C)C)C(=O)NC(C)c1ccccc1 (stereo not shown)
activity at 0.3 µM (%): 7
//
compound: CCCCNC(=O)C(CCSC)NC(=O)C(NC(=O)C(CC(C)C)CC(O)C(NC(=O)OC(C)(C)C)C(C)O)C(C)C (stereo not shown)
activity at 0.3 µM (%): 13

Proceeding to the next compound to report its activity at 0.3 µM.
Task: Returns the measured activity at 0.3 µM for the input compound. Input: CSCCC(NC(=O)C(NC(=O)C(CC(C)C)CC(O)C(NC(=O)OC(C)(C)C)C(C)O)C(C)C)C(=O)NCc1ccccc1 (stereo not shown)
Output: 15

----------
target: γ-secretase (Homo sapiens, UniProt P49768); assay: Aβ secretion by C99 cells (HEK293 stably expressing APP-C99), γ-secretase inhibitory effect, Aβ ELISA of culture supernatant; type: cell-based; details: HEK293, 24 h, Example 8; exposure 3 μmol/L, 24 h; read-out: Aβ [(1-40) + (1-42)] secretion rate of C99 cells
reported.endpoint: activity at 3 µM (%)
Numbers only; they are read as %.

molecule: CCCCNC(=O)C(CCSC)NC(=O)C(NC(=O)C(CC(C)C)CC(O)C(NC(=O)OC(C)(C)C)C(C)O)C(C)C (stereo not shown)
tested.system: γ-secretase (Homo sapiens, UniProt P49768)
reported.endpoint: activity at 3 µM
reported.result: 4

Task: Returns the measured activity at 3 µM for the input molecule. Input: CSCCC(NC(=O)C(NC(=O)C(CC(C)C)CC(O)C(NC(=O)OC(C)(C)C)C(C)O)C(C)C)C(=O)NCc1ccc(F)cc1 (stereo not shown)
Output: 7

Task: Consider next the molecule CSCCC(NC(=O)C(NC(=O)C(CC(C)C)CC(O)C(NC(=O)OC(C)(C)C)C(C)O)C(C)C)C(=O)NCc1ccccc1 (stereo not shown) in the same way.
Output: 7

Task: Consider next the molecule CSCCC(NC(=O)C(NC(=O)C(CC(C)C)CC(O)C(NC(=O)OC(C)(C)C)C(C)O)C(C)C)C(=O)NC(C)c1ccccc1 (stereo not shown) in the same way.
Output: 5

----------
molecular target: γ-secretase (Homo sapiens, UniProt P49768); experiment: Aβ secretion by C99 cells (HEK293 stably expressing APP-C99), γ-secretase inhibitory effect, Aβ ELISA of culture supernatant; type: cell-based; settings: HEK293, 24 h, Example 9; exposure 0.3 μmol/L; read-out: Aβ [(1-40) + (1-42)] secretion rate of C99 cells
reported.endpoint: activity at 0.3 µM (%)
Numbers only; they are read as %.

Below, each entry is followed by its recorded activity at 0.3 µM result.
compound: CSCCC(NC(=O)C(NC(=O)C(CC(C)C)CC(O)C(NC(=O)OC(C)(C)C)C(C)O)C(C)C)C(=O)NCc1ccccc1 (stereo not shown)
activity at 0.3 µM (%): 16
--
compound: CCCCNC(=O)C(CCSC)NC(=O)C(NC(=O)C(CC(C)C)CC(O)C(NC(=O)OC(C)(C)C)C(C)O)C(C)C (stereo not shown)
activity at 0.3 µM (%): 14
--
compound: CSCCC(NC(=O)C(NC(=O)C(CC(C)C)CC(O)C(NC(=O)OC(C)(C)C)C(C)O)C(C)C)C(=O)NC(C)c1ccccc1 (stereo not shown)
activity at 0.3 µM (%): 8

Proceeding to the next compound to report its activity at 0.3 µM.
Task: Returns the measured activity at 0.3 µM for the input compound. Input: CSCCC(NC(=O)C(NC(=O)C(CC(C)C)CC(O)C(NC(=O)OC(C)(C)C)C(C)O)C(C)C)C(=O)NCc1ccc(F)cc1 (stereo not shown)
Output: 18
